These data points were gathered from patent US10047131B2.

Target: HLA-A*02:01 (Homo sapiens, UniProt P04439, D140Y/D185E/D98H/E176V/E277Q/G131W/G231S/I119V/I121R/I166T/I218V/L300P/L318F/N151K/N90K/P208A/P217A/Q86G/Q94H/R138H/R169H/T345S)
Test: MHC binding assay (UV-ligand exchange, ELISA of exchange yield)
Details: binding to HLA-A*02:01, UV-ligand exchange
Source text: Candidate peptides for T cell based therapies according to the present invention were further tested for their MHC binding capacity (affinity). The individual peptide-MHC complexes were produced by UV-ligand exchange, where a UV-sensitive peptide is cleaved upon UV-irradiation, and exchanged with the peptide of interest as analyzed. Only peptide candidates that can effectively bind and stabilize the peptide-receptive MHC molecules prevent dissociation of the MHC complexes. […]
Property label: Peptide exchange (MHC class I binding score, peptide exchange yield)

// below: answered substances
Substance	Result
542 (RVWDISTVSSV; listed as Homo sapiens) [compound 542]	“+++” (≥50 = +++)
19 (FMVDNEAIYDI; listed as Homo sapiens) [compound 19]	“++++” (≥75% = ++++)
176 (YLMEGSYNKVFL; listed as Homo sapiens) [compound 176]	“++” (≥20% = ++)
607 (RLYSGISGLEL; listed as Homo sapiens) [compound 607]	“+++” (≥50 = +++)
111 (YVWGFYPAEV; listed as Homo sapiens) [compound 111]	“+++” (≥50 = +++)
325 (FIMPATVADATAV; listed as Homo sapiens) [compound 325]	“+++” (≥50 = +++)
195 (GLFADLLPRL; listed as Homo sapiens) [compound 195]	“+++” (≥50 = +++)
590 (SLIEKLWQT; listed as Homo sapiens) [compound 590]	“++” (≥20% = ++)

As a next step, examine the substance that follows.
Which value of Peptide exchange (MHC class I binding score, peptide exchange yield) has been reported for 492 (SLFDGFADGLGV; listed as Homo sapiens) [compound 492] in the records? “+++” (≥50 = +++)
